- Assay Procedure: clinical
- Reported Conditions: human, in vivo, po, 100 mg
Experimental Endpoint: AUC (ng·h/mL)
Only the number, expressed in ng·h/mL, is required.

Need AUC, item CC(=O)NCCCC[C@@H]1NC(=O)[C@H](Cc2c[nH]c3c(C)cccc23)NC(=O)[C@H]([C@@H](C)O)NC(=O)[C@H](CC(N)=O)NC(=O)[C@@H](NC(C)=O)C(C)(C)SSC(C)(C)[C@@H](C(=O)N[C@@H](Cc2ccc(OCCN)cc2)C(=O)N[C@@H](Cc2ccc3ccccc3c2)C(=O)NC2(C(=O)N[C@@H](CCC(=O)O)C(=O)N[C@@H](CC(N)=O)C(=O)N[C@@H](Cc3cccnc3)C(=O)N(C)CC(N)=O)CCOCC2)NC1=O 20.8
